Test system: Candida albicans
Test: In vitro inhibition of Candida albicans G418-sensitive proliferation
Format: functional, organism-based
Rule: IC50 below 20 nM gives YES. Equal to or above 20 nM gives NO.

Sample answers from the record:
# Compound Structure, Assigned Class
rows = [
    ("O=C(O)CN1C(=O)/C(=C/c2ccc(OCc3ccccc3)c(OCc3cccnc3)c2)SC1=S", "NO"),
    ("Cc1ccc(COc2ccc(/C=C3\\SC(=S)N(CC(=O)O)C3=O)cc2OCc2ccccc2)cc1", "NO"),
    ("C[C@@H](COc1ccc(/C=C2\\SC(=S)N(CC(=O)O)C2=O)cc1O[C@H](c1ccccc1)C(F)(F)F)c1ccccc1", "YES"),
    ("C[C@@H](COc1ccc(/C=C2\\SC(=S)N(CC(=O)O)C2=O)cc1O[C@@H](c1ccccc1)C(F)(F)F)c1ccccc1", "NO"),
]

Next item in the queue.
Please let me know if O=C(O)CN1C(=O)/C(=C/c2ccc(OCc3cccc(C(F)(F)F)c3)c(OCc3ccccc3)c2)SC1=S shows IC50 below 20 nM.
NO

Provenance of the data: ChEMBL document CHEMBL1137125
